Consider the following sequences; for each one, report its phosphorylation enrichment.
# system.under.test: MERTK (UniProt Q12866)
# Sequence (Q12866 whole entry, looked up): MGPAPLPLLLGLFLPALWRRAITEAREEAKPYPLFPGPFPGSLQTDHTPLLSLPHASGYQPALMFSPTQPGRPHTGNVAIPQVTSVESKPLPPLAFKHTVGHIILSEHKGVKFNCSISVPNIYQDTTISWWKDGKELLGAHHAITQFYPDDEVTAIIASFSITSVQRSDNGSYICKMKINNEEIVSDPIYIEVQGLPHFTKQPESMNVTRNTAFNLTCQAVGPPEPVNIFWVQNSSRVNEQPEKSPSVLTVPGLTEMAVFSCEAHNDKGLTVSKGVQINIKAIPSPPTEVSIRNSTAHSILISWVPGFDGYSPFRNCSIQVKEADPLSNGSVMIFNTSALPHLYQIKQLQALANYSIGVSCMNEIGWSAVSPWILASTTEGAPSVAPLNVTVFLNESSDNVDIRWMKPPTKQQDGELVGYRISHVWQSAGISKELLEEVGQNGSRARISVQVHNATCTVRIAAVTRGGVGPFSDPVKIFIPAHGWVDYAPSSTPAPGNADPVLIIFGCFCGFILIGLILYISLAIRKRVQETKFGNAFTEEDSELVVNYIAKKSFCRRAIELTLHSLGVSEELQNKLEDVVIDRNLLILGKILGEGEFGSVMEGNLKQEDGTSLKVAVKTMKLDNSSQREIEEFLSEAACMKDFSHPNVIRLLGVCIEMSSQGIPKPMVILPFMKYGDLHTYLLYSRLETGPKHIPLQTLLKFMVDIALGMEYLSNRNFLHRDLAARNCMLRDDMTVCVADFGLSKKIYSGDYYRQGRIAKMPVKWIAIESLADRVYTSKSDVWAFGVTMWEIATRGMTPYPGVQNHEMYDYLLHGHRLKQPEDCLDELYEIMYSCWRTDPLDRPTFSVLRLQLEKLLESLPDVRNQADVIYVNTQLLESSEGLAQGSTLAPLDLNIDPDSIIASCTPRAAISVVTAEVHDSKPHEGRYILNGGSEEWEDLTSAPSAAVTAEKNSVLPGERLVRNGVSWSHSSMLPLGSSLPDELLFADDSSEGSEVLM
# assay.explanation: phosphorylation enrichment, bacterial display (enrichment ratio); higher = better substrate or ligand; peptides without Tyr show the background;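 further: 11-residue human phosphosite peptides and single-mutation variants displayed on the E. coli surface, counted by deep sequencing, each peptide's frequency after selection divided by its frequency in the unselected input library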;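 further: frequency after pTyr selection over input frequency; kinase dosed for 20-30% of maximal phosphorylation in three min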
One number for each entry.

Below: 5 sequences and their reported phosphorylation enrichment.
{"entry.sequence": "YGEYRYRSVIK [CFTR_Y517_D513G]", "phosphorylation enrichment": 0.463}
{"entry.sequence": "NNPAYYVLEGV [INPPL1_Y987]", "phosphorylation enrichment": 9.04}
{"entry.sequence": "PGNIVYSSLCG [BCOR_Y90]", "phosphorylation enrichment": 1.6}
{"entry.sequence": "AIFWRYSKFFD [SH3PXD2B_Y45_R43W_YF]", "phosphorylation enrichment": 0.323}
{"entry.sequence": "DAASNYARGHF [TUBA3E_Y103_YF]", "phosphorylation enrichment": 0.465}

Quick one: give me phosphorylation enrichment for each item below, same order please.
1. LERFIYNRQEF [HLA-DPB1_Y59_E62Q_YF]
2. RGVVMYTSKDR [ZG16B_Y136_M133V]
3. NAPNSYGRRPS [CDKN2A_Y44_I49S]

Result:
1. 0.357
2. 0.552
3. 0.499

---

Consider the following sequences; for each one, report its phosphorylation enrichment.
# Test system: Fer (mouse)
# assay.explanation: phosphorylation enrichment, bacterial display (enrichment ratio); higher = better substrate or ligand; peptides without Tyr show the background

Quick one: give me phosphorylation enrichment for each item below, same order please.
1. VEFAKYGSLQG [RET_Y809_R813Q_YF]
2. SVTCTYSPALI [TP53_Y126_N131I]

Result:
1. 0.44
2. 1.09

---

# system.under.test: Hck (UniProt P08631)
# Sequence (P08631 whole entry, looked up): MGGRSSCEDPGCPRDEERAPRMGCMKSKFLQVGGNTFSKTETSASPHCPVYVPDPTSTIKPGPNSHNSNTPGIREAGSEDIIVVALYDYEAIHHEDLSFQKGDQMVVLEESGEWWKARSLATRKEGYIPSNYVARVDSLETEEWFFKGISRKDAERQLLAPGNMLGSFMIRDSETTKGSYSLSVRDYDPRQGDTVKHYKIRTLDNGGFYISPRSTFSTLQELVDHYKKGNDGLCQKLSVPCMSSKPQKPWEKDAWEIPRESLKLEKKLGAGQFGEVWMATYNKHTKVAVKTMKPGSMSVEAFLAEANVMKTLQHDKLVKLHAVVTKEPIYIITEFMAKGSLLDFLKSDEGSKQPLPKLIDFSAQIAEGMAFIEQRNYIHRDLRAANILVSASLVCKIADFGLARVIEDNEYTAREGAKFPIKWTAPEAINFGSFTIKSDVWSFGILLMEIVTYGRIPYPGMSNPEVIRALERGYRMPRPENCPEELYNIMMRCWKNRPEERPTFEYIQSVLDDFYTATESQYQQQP
# assay.explanation: phosphorylation enrichment, bacterial display (enrichment ratio); higher = better substrate or ligand; peptides without Tyr show the background
Consider the following sequences; for each one, report its phosphorylation enrichment.
Numbers only.

{"entry.sequence": "AEYGLYGAMVR [VSX2_Y222]", "reading": 6.91}
{"entry.sequence": "ASRKYYAMKIL [AKT3_Y174_G171R]", "reading": 0.368}
{"entry.sequence": "PLDGEYFTLRI [TP53_Y327_Q331R]", "reading": 1.76}

Quick one: give me phosphorylation enrichment for each item below, same order please.
1. PMQLPYDSRWE [PDGFRA_Y582]
2. LSAPCYLNRIS [HEXA_Y421_W420C]
3. DKATEYIQYVR [MAX_Y70_M74V]
4. SSSGGYGGGFG [KRT19_Y61_A60G_YF]
5. IGVGSYSVCKR [RPS6KA3_Y433]

Result:
1. 0.706
2. 0.507
3. 0.552
4. 0.35
5. 0.383

---

# Tested on: c-Abl (mouse)
# assay.explanation: phosphorylation enrichment, bacterial display (enrichment ratio); higher = better substrate or ligand; peptides without Tyr show the background
value.type: phosphorylation enrichment
Give bare numbers.

Below: 10 sequences and their reported phosphorylation enrichment.
{"entry.sequence": "GRDVIYKGFED [NFU1_Y194_G190R]", "phosphorylation enrichment": 0.561}
{"entry.sequence": "RFVSRYIFNRE [HLA-DQB1_Y62_T60S_YF]", "phosphorylation enrichment": 0.867}
{"entry.sequence": "MPIPMYDASQA [CARMIL1_Y637]", "phosphorylation enrichment": 0.824}
{"entry.sequence": "RDMNAYISPSP [MMAA_Y207_R209S]", "phosphorylation enrichment": 0.671}
{"entry.sequence": "IHHIDYYKETT [FGFR1_Y653_K656E]", "phosphorylation enrichment": 0.442}
{"entry.sequence": "DDSSAYCSVDE [BCKDHA_Y345_R346C]", "phosphorylation enrichment": 0.712}
{"entry.sequence": "KDHPDYKYPPR [SOX10_Y171_Q174P]", "phosphorylation enrichment": 0.515}
{"entry.sequence": "MKSIKYMDKEV [CCDC60_Y41_I46V]", "phosphorylation enrichment": 0.492}
{"entry.sequence": "QEITTYRRLLE [KRT14_Y415_A413T]", "phosphorylation enrichment": 0.815}
{"entry.sequence": "TYEPNYGTVKQ [RAPGEF6_Y1447]", "phosphorylation enrichment": 1.2}

Quick one: give me phosphorylation enrichment for each item below, same order please.
1. RDLEQYVNNVN [PCDH19_Y1097]
2. GHLYANDWISI [BEST1_Y227_Y227N]

Result:
1. 0.968
2. 0.587

Request: Can you look up the measured phosphorylation enrichment of DMQTLYVNTAA [SMCHD1_Y403] for me?
Result: 0.734

---

# system.under.test: FGFR1 (UniProt P11362)
# Sequence (P11362 whole entry, looked up): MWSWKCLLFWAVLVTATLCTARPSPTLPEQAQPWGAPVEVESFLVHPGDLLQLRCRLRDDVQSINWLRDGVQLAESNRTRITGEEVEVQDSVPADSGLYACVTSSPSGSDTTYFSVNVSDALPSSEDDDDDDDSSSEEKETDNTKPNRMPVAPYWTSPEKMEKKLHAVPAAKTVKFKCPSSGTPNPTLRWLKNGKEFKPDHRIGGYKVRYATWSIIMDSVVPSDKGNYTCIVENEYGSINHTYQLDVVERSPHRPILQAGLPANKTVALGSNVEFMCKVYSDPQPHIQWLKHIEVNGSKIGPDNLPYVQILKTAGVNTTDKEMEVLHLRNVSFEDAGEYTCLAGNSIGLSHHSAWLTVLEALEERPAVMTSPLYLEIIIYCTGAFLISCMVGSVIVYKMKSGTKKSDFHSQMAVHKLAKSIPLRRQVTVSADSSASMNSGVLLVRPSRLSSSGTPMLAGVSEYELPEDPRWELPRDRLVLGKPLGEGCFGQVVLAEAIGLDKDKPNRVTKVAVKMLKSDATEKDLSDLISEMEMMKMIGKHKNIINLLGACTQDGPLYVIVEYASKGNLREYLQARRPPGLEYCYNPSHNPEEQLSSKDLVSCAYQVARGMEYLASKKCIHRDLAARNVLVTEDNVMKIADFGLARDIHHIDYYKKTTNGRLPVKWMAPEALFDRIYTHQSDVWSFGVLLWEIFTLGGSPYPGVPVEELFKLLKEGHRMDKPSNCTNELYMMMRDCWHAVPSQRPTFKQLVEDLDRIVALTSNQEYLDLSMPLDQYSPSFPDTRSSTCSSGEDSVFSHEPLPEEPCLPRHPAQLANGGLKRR
# assay.explanation: phosphorylation enrichment, bacterial display (enrichment ratio); higher = better substrate or ligand; peptides without Tyr show the background
Decision: phosphorylation enrichment compared against 0.5; not below it gives TRUE, below it gives FALSE.

Example results:
{"entry.sequence": "NNPAYYVLEGV [INPPL1_Y987]", "label.value": "TRUE"}
{"entry.sequence": "VSYDEYRYRSV [CFTR_Y515]", "label.value": "FALSE"}
{"entry.sequence": "GIFKDYFRFNF [PLA2G2D_Y85_S80G_YF]", "label.value": "TRUE"}
{"entry.sequence": "SVTCTSSPALN [TP53_Y126_Y126S]", "label.value": "FALSE"}
{"entry.sequence": "RQNNSYTCYTA [SLC20A2_Y386_R382Q]", "label.value": "TRUE"}
{"entry.sequence": "EIELAYRRRPP [GRIN2B_Y1109]", "label.value": "FALSE"}
{"entry.sequence": "RCYVYYYSYLL [PTEN_Y177_R173C]", "label.value": "TRUE"}
{"entry.sequence": "VDLIVYLRTNP [TK2_Y181]", "label.value": "FALSE"}

Request: Reported phosphorylation enrichment reaches at least 0.5 for SHLSSYTTHPQ [NIPBL_Y195_P192L] ?
Result: FALSE

Request: Reported phosphorylation enrichment reaches at least 0.5 for AGLVQYYMEHH [PTPN11_Y80_E76G] ?
Result: TRUE

Request: Reported phosphorylation enrichment reaches at least 0.5 for SDYYAYSPVRE [H6PD_Y449] ?
Result: TRUE

Request: Reported phosphorylation enrichment reaches at least 0.5 for VVEYGYEFFAK [PPP1CB_Y254_D252Y] ?
Result: TRUE

Request: Reported phosphorylation enrichment reaches at least 0.5 for LHVGFYESDVM [A2M_Y708_R704H] ?
Result: TRUE

Request: Reported phosphorylation enrichment reaches at least 0.5 for IQKKFYRAILE [CHD7_Y1218_YF] ?
Result: FALSE

---

# system.under.test: Fyn (UniProt P06241)
# Sequence (P06241 whole entry, looked up): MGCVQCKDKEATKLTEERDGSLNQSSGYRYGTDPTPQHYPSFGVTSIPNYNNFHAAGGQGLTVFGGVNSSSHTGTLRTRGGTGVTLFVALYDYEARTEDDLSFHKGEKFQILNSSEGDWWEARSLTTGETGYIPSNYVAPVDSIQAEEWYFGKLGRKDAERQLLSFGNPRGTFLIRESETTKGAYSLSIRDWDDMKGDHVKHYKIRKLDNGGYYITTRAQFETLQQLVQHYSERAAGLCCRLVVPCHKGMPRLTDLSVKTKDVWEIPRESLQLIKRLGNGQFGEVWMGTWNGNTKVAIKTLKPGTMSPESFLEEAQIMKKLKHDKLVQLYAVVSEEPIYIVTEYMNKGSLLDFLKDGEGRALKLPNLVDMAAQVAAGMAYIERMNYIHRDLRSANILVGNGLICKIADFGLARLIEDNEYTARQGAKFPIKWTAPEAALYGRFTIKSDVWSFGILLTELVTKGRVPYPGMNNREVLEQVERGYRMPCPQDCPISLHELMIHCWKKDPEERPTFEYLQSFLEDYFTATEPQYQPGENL
# assay.explanation: phosphorylation enrichment, bacterial display (enrichment ratio); higher = better substrate or ligand; peptides without Tyr show the background
Decision: phosphorylation enrichment compared against 0.4; not below it gives MET, below it gives NOT MET.

Example results:
{"entry.sequence": "FSMGCYEIFLG [HMGCL_Y198_S201Y_YF]", "label.value": "MET"}
{"entry.sequence": "ESDGAYIQRMQ [CCDC137_Y125_H127Q]", "label.value": "MET"}
{"entry.sequence": "YKWAVYCIIGR [NUP93_Y391_R388W]", "label.value": "MET"}
{"entry.sequence": "TARWEYMHSPS [CPOX_Y429]", "label.value": "NOT MET"}
{"entry.sequence": "RRAKGYPINLF [ITGB2_Y125_D128N_YF]", "label.value": "MET"}
{"entry.sequence": "YDGKDYIALNE [HLA-A_Y147]", "label.value": "MET"}
{"entry.sequence": "LLLLFCVVRFC [MPZ_Y177_Y177C_YF]", "label.value": "MET"}
{"entry.sequence": "PRDGEYFTLQI [TP53_Y327_L323R]", "label.value": "MET"}
{"entry.sequence": "KHTLSFVDVGT [SDHA_Y629_Y629F]", "label.value": "NOT MET"}
{"entry.sequence": "DGMADCSDPSY [CDC5L_Y459_Y459C]", "label.value": "MET"}

Request: Reported phosphorylation enrichment reaches at least 0.4 for RMQLPYDSTWE [PDGFRB_Y589_P584R] ?
Result: MET

Request: Reported phosphorylation enrichment reaches at least 0.4 for CEAVEYLESKQ [BTK_Y511_M509V] ?
Result: MET

Request: Reported phosphorylation enrichment reaches at least 0.4 for IPQEEYTATGL ?
Result: MET

---

# system.under.test: EPHB2 (UniProt P29323)
# Sequence (P29323 whole entry, looked up): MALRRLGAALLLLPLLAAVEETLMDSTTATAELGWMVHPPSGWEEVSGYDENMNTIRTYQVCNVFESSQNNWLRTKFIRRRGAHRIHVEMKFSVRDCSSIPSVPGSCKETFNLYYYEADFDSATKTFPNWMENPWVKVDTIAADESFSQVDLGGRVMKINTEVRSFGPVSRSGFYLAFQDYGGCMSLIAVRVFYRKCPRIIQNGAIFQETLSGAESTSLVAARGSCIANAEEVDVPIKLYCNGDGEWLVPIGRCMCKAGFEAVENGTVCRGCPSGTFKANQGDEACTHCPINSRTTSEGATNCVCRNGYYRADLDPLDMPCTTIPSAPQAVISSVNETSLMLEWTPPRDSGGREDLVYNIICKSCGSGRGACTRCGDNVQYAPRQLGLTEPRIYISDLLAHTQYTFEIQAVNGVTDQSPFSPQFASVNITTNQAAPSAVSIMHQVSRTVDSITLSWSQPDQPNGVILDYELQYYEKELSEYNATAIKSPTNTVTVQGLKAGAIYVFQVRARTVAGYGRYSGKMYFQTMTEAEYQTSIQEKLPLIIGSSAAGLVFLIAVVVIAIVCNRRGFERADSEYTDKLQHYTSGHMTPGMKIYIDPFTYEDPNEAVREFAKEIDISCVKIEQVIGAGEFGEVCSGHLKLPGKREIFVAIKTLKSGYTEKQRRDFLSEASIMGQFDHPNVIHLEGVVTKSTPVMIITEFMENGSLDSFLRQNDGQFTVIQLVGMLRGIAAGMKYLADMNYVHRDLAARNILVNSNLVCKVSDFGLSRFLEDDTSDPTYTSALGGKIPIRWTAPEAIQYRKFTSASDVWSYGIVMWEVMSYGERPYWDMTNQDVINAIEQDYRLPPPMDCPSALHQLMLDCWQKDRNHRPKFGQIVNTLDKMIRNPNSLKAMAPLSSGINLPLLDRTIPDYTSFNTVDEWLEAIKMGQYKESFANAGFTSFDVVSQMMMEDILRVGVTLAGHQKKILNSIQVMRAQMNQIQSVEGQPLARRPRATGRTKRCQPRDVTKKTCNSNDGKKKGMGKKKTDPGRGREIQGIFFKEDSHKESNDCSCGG
# assay.explanation: phosphorylation enrichment, bacterial display (enrichment ratio); higher = better substrate or ligand; peptides without Tyr show the background
Decision: phosphorylation enrichment compared against 0.6; not below it gives Condition met, below it gives Condition not met.

Example results:
{"entry.sequence": "PTYEHYANSTQ [SLC12A3_Y70]", "label.value": "Condition met"}
{"entry.sequence": "FVSSFYHAFSG [ACTN4_Y265_YF]", "label.value": "Condition met"}

Request: Reported phosphorylation enrichment reaches at least 0.6 for PQIVNYSPDCI [LDHB_Y128_K127N] ?
Result: Condition not met

Request: Reported phosphorylation enrichment reaches at least 0.6 for KELAPYDENWF [RPS19_Y48] ?
Result: Condition met

Request: Reported phosphorylation enrichment reaches at least 0.6 for PRDGEYFTLQI [TP53_Y327_L323R] ?
Result: Condition met

Request: Reported phosphorylation enrichment reaches at least 0.6 for KIDAKYKKKIE [WDR19_Y1230] ?
Result: Condition not met

Request: Reported phosphorylation enrichment reaches at least 0.6 for HFGCVYHGTLL [MET_Y1093] ?
Result: Condition met

Request: Reported phosphorylation enrichment reaches at least 0.6 for RLQEDYDHSFF [ESD_Y258_G257D_YF] ?
Result: Condition met

Request: Reported phosphorylation enrichment reaches at least 0.6 for SSVKLYRVYCD [FGB_Y266_P265L] ?
Result: Condition met

Request: Reported phosphorylation enrichment reaches at least 0.6 for TFRPPYYHRNC [HGD_Y333] ?
Result: Condition not met

Request: Reported phosphorylation enrichment reaches at least 0.6 for YPPTHYIRRVP [SLC4A11_Y820] ?
Result: Condition not met

Request: Reported phosphorylation enrichment reaches at least 0.6 for ERWLKYFPIEQ [HS3ST5_Y244] ?
Result: Condition not met

Request: Reported phosphorylation enrichment reaches at least 0.6 for SGSIHYSHVPR [GLB1_Y57_R59H] ?
Result: Condition not met
